# ASSAY SYSTEM: T1, AnkG 38–855 (AnkG MBD-AI-c protein; MBD + partial AI-c) (rat, UniProt O70511-1 38-855)
# T1 chain: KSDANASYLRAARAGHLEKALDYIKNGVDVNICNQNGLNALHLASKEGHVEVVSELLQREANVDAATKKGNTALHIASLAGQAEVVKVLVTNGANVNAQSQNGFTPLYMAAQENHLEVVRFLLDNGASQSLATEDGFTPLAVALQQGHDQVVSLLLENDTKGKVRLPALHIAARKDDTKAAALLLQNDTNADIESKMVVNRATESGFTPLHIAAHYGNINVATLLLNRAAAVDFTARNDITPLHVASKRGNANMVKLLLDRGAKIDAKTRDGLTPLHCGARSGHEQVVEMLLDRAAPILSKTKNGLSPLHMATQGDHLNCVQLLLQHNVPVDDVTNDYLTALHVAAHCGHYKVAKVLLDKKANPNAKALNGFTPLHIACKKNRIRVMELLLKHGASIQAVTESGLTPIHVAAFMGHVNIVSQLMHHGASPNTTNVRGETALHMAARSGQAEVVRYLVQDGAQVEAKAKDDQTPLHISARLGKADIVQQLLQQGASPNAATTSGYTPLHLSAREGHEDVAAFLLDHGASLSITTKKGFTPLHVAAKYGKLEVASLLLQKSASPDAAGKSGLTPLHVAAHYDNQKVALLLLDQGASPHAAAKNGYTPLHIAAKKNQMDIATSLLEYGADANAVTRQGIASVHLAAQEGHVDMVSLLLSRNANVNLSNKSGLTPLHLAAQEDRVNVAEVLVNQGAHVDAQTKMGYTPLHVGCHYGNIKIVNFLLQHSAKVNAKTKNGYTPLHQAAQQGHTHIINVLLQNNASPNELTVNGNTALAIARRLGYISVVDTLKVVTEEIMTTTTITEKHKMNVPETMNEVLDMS
# ASSAY PROCEDURE: ITC; two sites
pKd: −log10 of the molar value.
ENDPOINT LABEL: pKd

Looking up AnkG long linker (aa 837–920; AI-c + AI-b) (domain or fragment) TEKHKMNVPETMNEVLDMSDDEVGKASAPEKLSDGEYISDGEEGEDAITGDTDKYLGPQDLKELGDDSLPAEGYVGFSLGARSA , I found its pKd recorded as ~5.52
